System: E. coli ML 4707
Procedure details: In vitro antibacterial activity, MIC (standard strain)
Type: cell-based
Test parameters: Escherichia coli, ML4707; E. coli ML 4707; 10^6 cells/ml; standard strain; read-out: MIC
Structures can show the parent of a compound that is named as a salt.
Below, each entry is listed alongside its reported MIC.
Endpoint name: MIC (µg/mL)

{"Molecule": "CN(C)CC1CCN(c2c(F)cc3c(=O)c(C(=O)O)cn(C4CC4)c3c2F)C1 (stereo not drawn)", "Assayed system": "E. coli ML 4707", "Unit symbol": "µg/mL", "Quantitative readout": 0.05}
{"Molecule": "CC(C)NCC1CCN(c2c(F)cc3c(=O)c(C(=O)O)cn(C4CC4)c3c2F)C1.Cl (stereo not drawn)", "Assayed system": "E. coli ML 4707", "Unit symbol": "µg/mL", "Quantitative readout": 0.05}
{"Molecule": "CCCNCC1CCN(c2c(F)cc3c(=O)c(C(=O)O)cn(C4CC4)c3c2F)C1 (stereo not drawn) [Example 10, hydrochloride]", "Assayed system": "E. coli ML 4707", "Unit symbol": "µg/mL", "Quantitative readout": 0.2}

* * *

Tested on: Salmonella entritidis IID 604
Procedure details: In vitro antibacterial activity, MIC (standard strain)
Type: cell-based
Test parameters: IID604; Salmonella entritidis IID 604; 10^6 cells/ml; standard strain; read-out: MIC
Where a name gives a salt, the structure may show the parent alone.

{"Compound": "CN(C)CC1CCN(c2c(F)cc3c(=O)c(C(=O)O)cn(C4CC4)c3c2F)C1 (stereo not drawn)", "MIC / µg/mL": 0.1}
{"Compound": "CNCC1CCN(c2c(F)cc3c(=O)c(C(=O)O)cn(C4CC4)c3c2F)C1 (stereo not drawn) [Example 8, hydrochloride]", "MIC / µg/mL": 0.05}
{"Compound": "CNCC1CCN(c2cc3c(cc2F)c(=O)c(C(=O)O)cn3C2CC2)C1 (stereo not drawn) [Example 9, hydrochloride]", "MIC / µg/mL": 0.2}

* * *

System: S. pneumoniae IID 552
Procedure details: In vitro antibacterial activity, MIC (standard strain)
Type: cell-based
Test parameters: Streptococcus pneumoniae, IID552; S. pneumoniae IID 552; 10^6 cells/ml; standard strain; read-out: MIC
Counter-ions that a name gives are not always drawn.
Endpoint name: MIC (µg/mL)

{"Compound": "NCC1CCN(c2c(F)cc3c(=O)c(C(=O)O)cn(C4CC4)c3c2Br)C1 (stereo not drawn)", "Quantitative readout": 0.05}
{"Compound": "NCC1CCN(c2c(F)cc3c(=O)c(C(=O)O)cn(C4CC4)c3c2F)C1 (stereo not drawn) [Example 1, hydrochloride]", "Quantitative readout": 0.05}
{"Compound": "CNCC1CCN(c2cc3c(cc2F)c(=O)c(C(=O)O)cn3C2CC2)C1 (stereo not drawn) [Example 9, hydrochloride]", "Quantitative readout": 0.39}
{"Compound": "CCn1cc(C(=O)O)c(=O)c2cc(F)c(N3CCNCC3)cc21 [NFLX, Norfloxacin, reference compound]", "Quantitative readout": 3.13}
{"Compound": "CNCC1CCN(c2c(F)cc3c(=O)c(C(=O)O)cn(C4CC4)c3c2Br)C1 (stereo not drawn)", "Quantitative readout": 0.05}
{"Compound": "CCNCC1CCN(c2cc3c(cc2F)c(=O)c(C(=O)O)cn3C2CC2)C1.Cl (stereo not drawn)", "Quantitative readout": 0.39}

* * *

Below, each entry is listed alongside its reported MIC.
System: Acinetobacter anitratus IID 876
Procedure details: In vitro antibacterial activity, MIC (standard strain)
Assay type: cell-based
Test parameters: Acinetobacter calcoaceticus, IID876, Acinetobacter anitratus IID 876; 10^6 cells/ml; standard strain; read-out: MIC
Structures can show the parent of a compound that is named as a salt.

{"Molecule": "CCNCC1CCN(c2c(F)cc3c(=O)c(C(=O)O)cn(C4CC4)c3c2Br)C1 (stereo not drawn) [Example 17]", "Unit symbol": "mg/L", "MIC": 0.05}
{"Molecule": "NCC1CCN(c2c(F)cc3c(=O)c(C(=O)O)cn(C4CC4)c3c2F)C1 (stereo not drawn) [Example 1, hydrochloride]", "Unit symbol": "mg/L", "MIC": 0.1}
{"Molecule": "CNCC1CCN(c2c(F)cc3c(=O)c(C(=O)O)cn(C4CC4)c3c2Br)C1 (stereo not drawn) [Example 16]", "Unit symbol": "mg/L", "MIC": 0.05}
{"Molecule": "CNCC1CCN(c2c(F)cc3c(=O)c(C(=O)O)cn(C4CC4)c3c2F)C1 (stereo not drawn) [Example 8, hydrochloride]", "Unit symbol": "mg/L", "MIC": 0.1}
{"Molecule": "CN(C)CC1CCN(c2c(F)cc3c(=O)c(C(=O)O)cn(C4CC4)c3c2Cl)C1 (stereo not drawn) [Example 20]", "Unit symbol": "mg/L", "MIC": 0.05}
{"Molecule": "CC(C)NCC1CCN(c2c(F)cc3c(=O)c(C(=O)O)cn(C4CC4)c3c2F)C1.Cl (stereo not drawn) [Example 11]", "Unit symbol": "mg/L", "MIC": 0.1}

* * *

Below, each entry is listed alongside its reported MIC.
Tested on: C. ramosum
Procedure details: In vitro antibacterial activity, MIC (standard strain)
Type: cell-based
Test parameters: Thomasclavelia ramosa; C. ramosum; 10^6 cells/ml; standard strain; read-out: MIC
Structures can show the parent of a compound that is named as a salt.

{"Compound": "CN(C)CC1CCN(c2c(F)cc3c(=O)c(C(=O)O)cn(C4CC4)c3c2F)C1 (centres unmarked)", "MIC": "0.78 µg/mL"}
{"Compound": "NCC1CCN(c2c(F)cc3c(=O)c(C(=O)O)cn(C4CC4)c3c2F)C1 (centres unmarked) [Example 1, hydrochloride]", "MIC": "0.78 µg/mL"}
{"Compound": "CNCC1CCN(c2c(F)cc3c(=O)c(C(=O)O)cn(C4CC4)c3c2Cl)C1 (centres unmarked) [Example 12, hydrochloride]", "MIC": "0.39 µg/mL"}
{"Compound": "CC(C)NCC1CCN(c2c(F)cc3c(=O)c(C(=O)O)cn(C4CC4)c3c2F)C1.Cl (centres unmarked)", "MIC": "0.78 µg/mL"}
{"Compound": "CNCC1CCN(c2cc3c(cc2F)c(=O)c(C(=O)O)cn3C2CC2)C1 (centres unmarked) [Example 9, hydrochloride]", "MIC": "12.5 µg/mL"}
{"Compound": "CCNCC1CCN(c2c(F)cc3c(=O)c(C(=O)O)cn(C4CC4)c3c2F)C1 (centres unmarked) [Example 2, hydrochloride]", "MIC": "0.78 µg/mL"}
{"Compound": "CCNCC1CCN(c2c(F)cc3c(=O)c(C(=O)O)cn(C4CC4)c3c2Cl)C1 (centres unmarked)", "MIC": "0.2 µg/mL"}
{"Compound": "CNCC1CCN(c2c(F)cc3c(=O)c(C(=O)O)cn(C4CC4)c3c2Br)C1 (centres unmarked)", "MIC": "0.39 µg/mL"}
{"Compound": "CCn1cc(C(=O)O)c(=O)c2cc(F)c(N3CCNCC3)cc21 [NFLX, Norfloxacin, reference compound]", "MIC": "50 µg/mL"}
{"Compound": "CNCC1CCN(c2c(F)cc3c(=O)c(C(=O)O)cn(C4CC4)c3c2F)C1 (centres unmarked) [Example 8, hydrochloride]", "MIC": "0.78 µg/mL"}
{"Compound": "CCNCC1CCN(c2c(F)cc3c(=O)c(C(=O)O)cn(C4CC4)c3c2Br)C1 (centres unmarked)", "MIC": "0.39 µg/mL"}

* * *

Test system: Shigella sonnei IID 969
Procedure details: In vitro antibacterial activity, MIC (standard strain)
Assay type: cell-based
Test parameters: IID969, 10^6 cells/ml
Description: Experiment-1 In vitro antibacterial activity The in vitro antibacterial activity against gram-positive and gram-negative bacteria has been investivated. The minimum inhibitory concentration (MIC) was determined in accordance with the method recommended by Japan Society of Chemotherapy.
Counter-ions that a name gives are not always drawn.
Below, each entry is listed alongside its reported MIC.
Endpoint name: MIC (µg/mL)

{"Molecule": "CCNCC1CCN(c2c(F)cc3c(=O)c(C(=O)O)cn(CC)c3c2F)C1 (stereo not shown) [Ref.1, reference compound]", "Unit symbol": "µg/mL", "Quantitative readout": 0.1}
{"Molecule": "CNCC1CCN(c2cc3c(cc2F)c(=O)c(C(=O)O)cn3C2CC2)C1 (stereo not shown) [Example 9, hydrochloride]", "Unit symbol": "µg/mL", "Quantitative readout": 0.1}
{"Molecule": "CCNCC1CCN(c2c(F)cc3c(=O)c(C(=O)O)cn(C4CC4)c3c2F)C1 (stereo not shown) [Example 2, hydrochloride]", "Unit symbol": "µg/mL", "Quantitative readout": 0.025}
{"Molecule": "NCC1CCN(c2c(F)cc3c(=O)c(C(=O)O)cn(C4CC4)c3c2Cl)C1 (stereo not shown) [Example 14, hydrochloride]", "Unit symbol": "µg/mL", "Quantitative readout": 0.0125}
{"Molecule": "CCCNCC1CCN(c2c(F)cc3c(=O)c(C(=O)O)cn(C4CC4)c3c2F)C1 (stereo not shown) [Example 10, hydrochloride]", "Unit symbol": "µg/mL", "Quantitative readout": 0.025}
{"Molecule": "CCNCC1CCN(c2c(F)cc3c(=O)c(C(=O)O)cn(C4CC4)c3c2Cl)C1 (stereo not shown) [Example 13]", "Unit symbol": "µg/mL", "Quantitative readout": 0.025}
{"Molecule": "NCC1CCN(c2c(F)cc3c(=O)c(C(=O)O)cn(C4CC4)c3c2F)C1 (stereo not shown) [Example 1, hydrochloride]", "Unit symbol": "µg/mL", "Quantitative readout": 0.025}
{"Molecule": "CNCC1CCN(c2c(F)cc3c(=O)c(C(=O)O)cn(C4CC4)c3c2Cl)C1 (stereo not shown) [Example 12, hydrochloride]", "Unit symbol": "µg/mL", "Quantitative readout": 0.025}
{"Molecule": "CCNCC1CCN(c2cc3c(cc2F)c(=O)c(C(=O)O)cn3C2CC2)C1.Cl (stereo not shown) [Example 7]", "Unit symbol": "µg/mL", "Quantitative readout": 0.05}
{"Molecule": "CCn1cc(C(=O)O)c(=O)c2cc(F)c(N3CCNCC3)cc21 [NFLX, Norfloxacin, reference compound]", "Unit symbol": "µg/mL", "Quantitative readout": 0.05}
{"Molecule": "CC(C)NCC1CCN(c2c(F)cc3c(=O)c(C(=O)O)cn(C4CC4)c3c2F)C1.Cl (stereo not shown) [Example 11]", "Unit symbol": "µg/mL", "Quantitative readout": 0.05}
{"Molecule": "O=C(O)c1cn(C2CC2)c2cc(N3CCNCC3)c(F)cc2c1=O [CFLX, Ciprofloxacin, reference compound]", "Unit symbol": "µg/mL", "Quantitative readout": 0.0125}
{"Molecule": "NCC1CCN(c2c(F)cc3c(=O)c(C(=O)O)cn(C4CC4)c3c2Br)C1 (stereo not shown) [Example 15]", "Unit symbol": "µg/mL", "Quantitative readout": 0.0125}
